test system: PSMA + PC-3 PiP and PSMA − PC-3 flu tumor xenografts; details: 1 H post-injection
Below: a set of entries, each annotated with reported Biodistribution: thyroid.
OBSERVABLE: Biodistribution: thyroid (% ID/g)

INSERT INTO results (compound, observable, readout_number) VALUES
  ('O=C(O)CC[C@H](NC(=O)N[C@@H](CCC(=O)NCCc1ccc([211At])cc1)C(=O)O)C(=O)O [[^211At]HS-549]', 'Biodistribution: thyroid', 3.24),
  ('O=C(O)CC[C@H](NC(=O)NC(CCCCNC(=O)c1ccc([211At])cc1)C(=O)O)C(=O)O (stereo partly shown) [[^211At]YC-I-27]', 'Biodistribution: thyroid', 3.68),
  ('O=C(O)CC[C@H](NC(=O)N[C@@H](CCC(=O)NCCc1ccc([131I])cc1)C(=O)O)C(=O)O [[^131I]HS-549]', 'Biodistribution: thyroid', 1.17),
  ('N=C(N)NCc1ccc(C(=O)NCCCCC(NC(=O)CCCCCCC(=O)NCCCC[C@H](NC(=O)N[C@@H](CCC(=O)O)C(=O)O)C(=O)O)C(=O)O)cc1[211At] (stereo partly shown) [[^211At] labeled PSMA-904]', 'Biodistribution: thyroid', 0.51),
  ('O=C(O)CC[C@H](NC(=O)N[C@@H](CCCCNC(=O)c1ccc([131I])cc1)C(=O)O)C(=O)O [[^131I]YC-I-27]', 'Biodistribution: thyroid', 0.45),
  ('N=C(N)NCc1ccc(C(=O)NCCCC[C@H](NC(=O)N[C@@H](CCC(=O)O)C(=O)O)C(=O)O)cc1[131I] [[^131I] labeled 7 (PSMA-620)]', 'Biodistribution: thyroid', 0.79),
  ('N=C(N)NCc1ccc(C(=O)NCCCCC(NC(=O)CCCCCCC(=O)NCCCC[C@H](NC(=O)N[C@@H](CCC(=O)O)C(=O)O)C(=O)O)C(=O)O)cc1[131I] (stereo partly shown) [[^131I] labeled PSMA-904]', 'Biodistribution: thyroid', 0.11);

* * *

tested on: PSMA + PC-3 PiP and PSMA − PC-3 flu tumor xenografts; conditions: PSMA− tumor xenograft, 1 H post-injection
// values below are reported Biodistribution: PC-3 flu
OBSERVABLE: Biodistribution: PC-3 flu (% ID/g)

INSERT INTO measurements (compound, value_units, readout_number) VALUES
  ('N=C(N)NCc1ccc(C(=O)NCCCCC(NC(=O)CCCCCCC(=O)NCCCC[C@H](NC(=O)N[C@@H](CCC(=O)O)C(=O)O)C(=O)O)C(=O)O)cc1[211At] (stereo partly shown) [[^211At] labeled PSMA-904]', '% ID/g', 0.80),
  ('O=C(O)CC[C@H](NC(=O)NC(CCCCNC(=O)c1ccc([211At])cc1)C(=O)O)C(=O)O (stereo partly shown) [[^211At]YC-I-27]', '% ID/g', 2.18),
  ('O=C(O)CC[C@H](NC(=O)N[C@@H](CCC(=O)NCCc1ccc([131I])cc1)C(=O)O)C(=O)O [[^131I]HS-549]', '% ID/g', 2.21),
  ('O=C(O)CC[C@H](NC(=O)N[C@@H](CCCCNC(=O)c1ccc([131I])cc1)C(=O)O)C(=O)O [[^131I]YC-I-27]', '% ID/g', 0.62),
  ('N=C(N)NCc1ccc(C(=O)NCCCCC(NC(=O)CCCCCCC(=O)NCCCC[C@H](NC(=O)N[C@@H](CCC(=O)O)C(=O)O)C(=O)O)C(=O)O)cc1[131I] (stereo partly shown) [[^131I] labeled PSMA-904]', '% ID/g', 0.49),
  ('N=C(N)NCc1ccc(C(=O)NCCCC[C@H](NC(=O)N[C@@H](CCC(=O)O)C(=O)O)C(=O)O)cc1[131I] [[^131I] labeled 7 (PSMA-620)]', '% ID/g', 1.09),
  ('O=C(O)CC[C@H](NC(=O)N[C@@H](CCC(=O)NCCc1ccc([211At])cc1)C(=O)O)C(=O)O [[^211At]HS-549]', '% ID/g', 3.48);

* * *

tested on: PSMA + PC-3 PiP and PSMA − PC-3 flu tumor xenografts; details: 2 H post-injection
Quick reference for Biodistribution: liver among some molecules
OBSERVABLE: Biodistribution: liver (% ID/g)

INSERT INTO assay_data (molecule, readout_number) VALUES
  ('N=C(N)NCc1ccc(C(=O)NCCCCC(NC(=O)CCCCCCC(=O)NCCCC[C@H](NC(=O)N[C@@H](CCC(=O)O)C(=O)O)C(=O)O)C(=O)O)cc1[131I] (some centres unmarked) [[^131I] labeled PSMA-904]', 3.48),
  ('N=C(N)NCc1ccc(C(=O)NCCCC[C@H](NC(=O)N[C@@H](CCC(=O)O)C(=O)O)C(=O)O)cc1[131I] [[^131I] labeled 7 (PSMA-620)]', 5.62),
  ('O=C(O)CC[C@H](NC(=O)N[C@@H](CCC(=O)NCCc1ccc([131I])cc1)C(=O)O)C(=O)O [[^131I]HS-549]', 26.0),
  ('N=C(N)NCc1ccc(C(=O)NCCCCC(NC(=O)CCCCCCC(=O)NCCCC[C@H](NC(=O)N[C@@H](CCC(=O)O)C(=O)O)C(=O)O)C(=O)O)cc1[211At] (some centres unmarked) [[^211At] labeled PSMA-904]', 3.80),
  ('O=C(O)CC[C@H](NC(=O)N[C@@H](CCC(=O)NCCc1ccc([211At])cc1)C(=O)O)C(=O)O [[^211At]HS-549]', 4.65),
  ('O=C(O)CC[C@H](NC(=O)NC(CCCCNC(=O)c1ccc([211At])cc1)C(=O)O)C(=O)O (some centres unmarked) [[^211At]YC-I-27]', 1.58),
  ('O=C(O)CC[C@H](NC(=O)N[C@@H](CCCCNC(=O)c1ccc([131I])cc1)C(=O)O)C(=O)O [[^131I]YC-I-27]', 5.69),
  ('O=C(O)CC[C@H](NC(=O)N[C@@H](CSCc1ccc([125I])cc1)C(=O)O)C(=O)O [[^125I] labeled DCIBC]', 17);

* * *

Measured Biodistribution: heart, listed per entry for reference.
system: PSMA + PC-3 PiP and PSMA − PC-3 flu tumor xenografts; settings: 21 H post-injection
OBSERVABLE: Biodistribution: heart (% ID/g)

INSERT INTO results (molecule, readout_number) VALUES
  ('N=C(N)NCc1ccc(C(=O)NCCCCC(NC(=O)CCCCCCC(=O)NCCCC[C@H](NC(=O)N[C@@H](CCC(=O)O)C(=O)O)C(=O)O)C(=O)O)cc1[131I] (some centres unmarked) [[^131I] labeled PSMA-904]', 0.02),
  ('O=C(O)CC[C@H](NC(=O)N[C@@H](CCCCNC(=O)c1ccc([131I])cc1)C(=O)O)C(=O)O [[^131I]YC-I-27]', 0.46),
  ('N=C(N)NCc1ccc(C(=O)NCCCC[C@H](NC(=O)N[C@@H](CCC(=O)O)C(=O)O)C(=O)O)cc1[131I] [[^131I] labeled 7 (PSMA-620)]', 0.40),
  ('O=C(O)CC[C@H](NC(=O)N[C@@H](CCC(=O)NCCc1ccc([131I])cc1)C(=O)O)C(=O)O [[^131I]HS-549]', 0.41),
  ('N=C(N)NCc1ccc(C(=O)NCCCCC(NC(=O)CCCCCCC(=O)NCCCC[C@H](NC(=O)N[C@@H](CCC(=O)O)C(=O)O)C(=O)O)C(=O)O)cc1[211At] (some centres unmarked) [[^211At] labeled PSMA-904]', 1.12);

* * *

test system: PSMA + PC-3 PiP and PSMA − PC-3 flu tumor xenografts; settings: 2 H post-injection
Mark T only when Biodistribution: kidney stays strictly below 60 % ID/g. Values equal to the cut-off are F.

INSERT INTO results (compound, group) VALUES
  ('O=C(O)CC[C@H](NC(=O)N[C@@H](CCC(=O)NCCc1ccc([211At])cc1)C(=O)O)C(=O)O [[^211At]HS-549]', 'T'),
  ('N=C(N)NCc1ccc(C(=O)NCCCC[C@H](NC(=O)N[C@@H](CCC(=O)O)C(=O)O)C(=O)O)cc1[131I] [[^131I] labeled 7 (PSMA-620)]', 'F'),
  ('N=C(N)NCc1ccc(C(=O)NCCCCC(NC(=O)CCCCCCC(=O)NCCCC[C@H](NC(=O)N[C@@H](CCC(=O)O)C(=O)O)C(=O)O)C(=O)O)cc1[211At] (stereo partly shown) [[^211At] labeled PSMA-904]', 'F'),
  ('N=C(N)NCc1ccc(C(=O)NCCCCC(NC(=O)CCCCCCC(=O)NCCCC[C@H](NC(=O)N[C@@H](CCC(=O)O)C(=O)O)C(=O)O)C(=O)O)cc1[131I] (stereo partly shown) [[^131I] labeled PSMA-904]', 'F'),
  ('O=C(O)CC[C@H](NC(=O)N[C@@H](CCC(=O)NCCc1ccc([131I])cc1)C(=O)O)C(=O)O [[^131I]HS-549]', 'F'),
  ('O=C(O)CC[C@H](NC(=O)N[C@@H](CSCc1ccc([125I])cc1)C(=O)O)C(=O)O [[^125I] labeled DCIBC]', 'T');
